Reported RP-LC retention time values are given for each entry in this list.
- assayText: gradient 5% acetonitrile 3 min, to 50% in 2 min, to 85% in 15 min, held 3 min, 100 µL/min
- conditionDescription: column: Zorbax Extend-C18 2.1 x 50 mm; eluents: water / acetonitrile, 0.1% formic acid
measurementLabel: RP-LC retention time (s)

molecule	measurementLabel	quantitativeReadout
CCOC(=O)C1CCN(C(=O)CCCn2c(=O)c3cccn3c3ccc(Br)cc32)CC1	RP-LC retention time	974
Cc1cc(C(=O)Nc2nnc(-c3cc4ccccc4o3)o2)c(C)o1	RP-LC retention time	812
CCc1nnc(-c2ccc3ccn(CC(=O)NCc4ccccc4OC)c3c2)o1	RP-LC retention time	851
CSc1ccc(CNC(=O)c2cn3c(n2)COCC3)cc1	RP-LC retention time	663
CN(C(=O)c1ccc(-c2cccc([N+](=O)[O-])c2)o1)C1CCS(=O)(=O)C1 (stereo not given)	RP-LC retention time	726

---

RP-LC retention time values by entry
- assayText: gradient 5% acetonitrile 3 min, to 50% in 2 min, to 85% in 15 min, held 3 min, 100 µL/min
- conditionDescription: column: Zorbax Extend-C18 2.1 x 50 mm; eluents: water / acetonitrile, 0.1% formic acid

compound	RP-LC retention time (s)
COCCNC(=O)CN1c2ccccc2NC2=C(C(=O)CC(C)(C)C2)C1c1ccc(F)cc1 (centres undefined)	752
O=C(NCCc1c[nH]c2ccccc12)C1CCCN(c2nn3c(=O)c4c(nc3s2)CCCC4)C1 (centres undefined)	775
Cc1ccc(-n2c(CN3CCN(C(=O)Nc4ccc5c(c4)OCCO5)CC3)nc3cccnc32)cc1	676
CC(=O)Nc1ccc(C2(C(=O)NCc3ccc(F)c(Cl)c3)CCC2)cc1	795
CCOc1ccc(NC(=O)CSc2ccc(N3CCCC(C(=O)NC4CC4)C3)nn2)cc1 (centres undefined)	652
CCN1c2cc(Cl)ccc2C(=O)NC12CCN(C(=O)NCCc1ccccc1)CC2	863
CCOc1ccc(NC(=O)NCCc2nc3cccnc3n2C2CCCC2)cc1	721
CCC(CN1CCOCC1)NC(=O)c1c2c(cn(-c3ccc(F)cc3)c1=O)C(=O)CC(C)(C)C2 (centres undefined)	657
CS(=O)(=O)c1ccc(NCCCC(=O)O)c([N+](=O)[O-])c1	624

---

- assayText: gradient 5% acetonitrile 3 min, to 50% in 2 min, to 85% in 15 min, held 3 min, 100 µL/min
- conditionDescription: column: Zorbax Extend-C18 2.1 x 50 mm; eluents: water / acetonitrile, 0.1% formic acid
Short version: RP-LC retention time at least 800 s is y, less is n.

compound	className
O=C(NCCc1ccco1)C1CCN(c2nc3cccnc3s2)CC1	n
O=C(NCC(O)c1cccc2ccccc12)Nc1c(F)cccc1F (stereo not given)	n
Cc1ccc(-n2nc(N3CCCC(C(=O)NCc4ccccc4F)C3)ccc2=O)cc1Cl (stereo not given)	y
CSc1ccc(CNC(=O)CCCn2nc(-n3cccc3)c3c(C)cc(C)nc32)cc1	y
COc1cc(C(=O)Nc2c(-c3ccccc3)nc3ccccn23)cc(OC)c1OC	n
COc1cc(/C=C2\CCCN([C@@H](C)c3ccc(F)cc3)C2=O)ccc1-n1cnc(C)c1	y
Cc1ccc(C)c(N2CCN(c3ccnc(SCC(=O)Nc4ccccc4)n3)CC2)c1	y
O=C(NC1CCCCC1)C1CCN(c2cncnc2N2CCCC2)CC1	n
Cc1cc(=O)n2nc(-c3ccc(Cl)cc3)nc2n1CC(=O)NC(C)C	n
COc1cccc(CNC(=O)C2CCN(C(=O)c3n[nH]c4ccccc34)CC2)c1	n
O=C(Nc1ccc2c(c1)OCCO2)N1CCC2(CC1)CC(N1CCCC1)CCO2 (stereo not given)	n
CCOc1ccc(N2CCCCn3c2nc2c3c(=O)n(CC(C)C)c(=O)n2C)cc1	y
NC(=O)C1CCN(c2ncnc3c2cnn3-c2ccc(Cl)cc2)CC1	n
COc1ccccc1NC(=O)c1cc2c(=O)oc3ccccc3c2n1C	y
Cc1ccn2cc(-c3ccc(NC(=O)c4cccc(F)c4)cc3)nc2n1	n
CC1(C)CCSC(/C=C/c2ccccc2)=N1	n
Cc1ccc(-c2ccc(-n3nc(C)c(S(=O)(=O)Nc4ccc(F)cc4)c3C)nn2)cc1	y
COc1cncc(C(=O)Nc2cc(F)ccc2F)c1	n

---

- assayText: gradient 5% acetonitrile 3 min, to 50% in 2 min, to 85% in 15 min, held 3 min, 100 µL/min
- conditionDescription: column: Zorbax Extend-C18 2.1 x 50 mm; eluents: water / acetonitrile, 0.1% formic acid

compound	RP-LC retention time
COc1ccc(-c2nc3c(s2)CN(C(=O)Nc2ccccc2OC)CC3)cc1	943 s
CC1(CNS(=O)(=O)c2ccc(F)cc2F)CCOCC1	779 s
CN1C(=O)CCCCC1C(=O)N1CCc2ccccc21 (stereo not given)	721 s
Fc1cccc(-c2nnc(C(c3cccc(Cl)c3)N3CCN(c4ccccn4)CC3)o2)c1 (stereo not given)	774 s
Cn1c(C2CCN(C(=O)Nc3ccccc3Br)CC2)cc(=O)n2nccc12	654 s

---

- assayText: gradient 5% acetonitrile 3 min, to 50% in 2 min, to 85% in 15 min, held 3 min, 100 µL/min
- conditionDescription: column: Zorbax Extend-C18 2.1 x 50 mm; eluents: water / acetonitrile, 0.1% formic acid
Assign a class from recorded RP-LC retention time; defined classes: category 1 = under 700 s, category 2 = from 700 s up to 1000 s, category 3 = 1000 s and over

molecule	className
CCOC(=O)c1[nH]c(C)c(CCC(=O)N2CCC(C(=O)NCCN3CCN(CC)CC3)CC2)c1C	category 1
CCCCN1CCc2nc(Nc3cc(OC)ccc3OC)ncc2C1	category 1
COCC(=O)NC1CCC12CCN(C(=O)C1CC1)CC2 (centres undefined)	category 1
CCC(C)NC(=O)Cn1nc(C)c2sc(-c3ccccc3)nc2c1=O (centres undefined)	category 2
CCC(C)Nc1nc2c(c(=O)n(C)c(=O)n2C)n1CC(O)COc1ccccc1 (centres undefined)	category 2
CCCSCCCNC(=O)COc1ccccc1-c1nnc(-c2ccccc2)o1	category 3
CC(=O)N1CCN(c2nc(CC(C)C)c3c(c2C#N)CC(C)(C)OC3)CC1	category 3

---

Overview of reported RP-LC retention time across a group of compounds:
- assayText: gradient 5% acetonitrile 3 min, to 50% in 2 min, to 85% in 15 min, held 3 min, 100 µL/min
- conditionDescription: column: Zorbax Extend-C18 2.1 x 50 mm; eluents: water / acetonitrile, 0.1% formic acid

compound	uom	RP-LC retention time
CN(C)CC1(O)CCC2(CCN(C(=O)CC3CCCC3)CC2)CC1	s	598
COc1cccc(C(=O)N2CCN=C2N2CCCC2)c1OC	s	614
Cc1nc(N2CCCC2)c2c(C(=O)NCCc3ccc(Cl)cc3)c(C)oc2n1	s	782
COc1ccc(CNC(=O)N2CCC(c3cc(N)on3)CC2)cc1	s	642
COc1ccccc1CNC(=O)Cn1c(=O)cc(-c2nc(C3CC3)no2)c2ccccc21	s	932
CCn1cc(-c2ccc(Cl)cc2)cc1C(=O)N1CCC2(CC1)OCCO2	s	1040
CCc1ccc(NC(=O)c2c(C)oc3nc(C)nc(N4CCCC4)c23)cc1	s	830
O=c1c2cc(-c3ccc(Br)cc3)nn2cnn1Cc1nc(-c2ccc(F)cc2)no1	s	1210
CN1CCn2ccnc2C12CCN(S(=O)(=O)c1ccccc1C(F)(F)F)CC2	s	654
COc1cccc(CN2CCC3(CCC3O)CC2)n1 (stereo not given)	s	569
CCc1nnc2cc(N3CCN(S(=O)(=O)c4cccc(F)c4)CC3)cnn12	s	690
O=C(Cn1ccnc1-c1ccnc(N2CCCC2)c1)NCc1ccc(Cl)cc1	s	601
O=C(Nc1cccn2c(C3CCC3)nnc12)c1ccc(Cl)s1	s	871
O=C(NCc1ccco1)c1c(O)c2cccnc2n(-c2cccc(F)c2)c1=O	s	1070
CCC(NC(=O)c1cn2ccc(C)cc2n1)c1ccc(OC)cc1 (stereo not given)	s	707
COc1ccc(N2CCN(c3cc(SCC(=O)Nc4ccc(OC)c(OC)c4)ncn3)CC2)cc1	s	791
CC1(C(=O)NC2CCCCCC2)CN(S(C)(=O)=O)CC(=O)N1c1cccc(Cl)c1 (stereo not given)	s	882
CCOc1ccc(-c2cn3ccn(-c4cccc(Cl)c4)c(=O)c3n2)cc1	s	899
O=C(NCc1ccc(F)cc1Cl)C1CCN(c2ncnc3c2oc2ccccc23)CC1	s	790
CCOC(=O)C(=O)Nc1ccc(-c2nc(-c3cc(C)ccc3C)co2)cc1	s	1180

---

Below is a list of entries, each paired with its recorded RP-LC retention time value.
- assayText: gradient 5% acetonitrile 3 min, to 50% in 2 min, to 85% in 15 min, held 3 min, 100 µL/min
- conditionDescription: column: Zorbax Extend-C18 2.1 x 50 mm; eluents: water / acetonitrile, 0.1% formic acid

compound	RP-LC retention time [s]
COc1ccc(CC(=O)Nc2ccc(-c3cn4ccsc4n3)cc2)cc1OC	604
Cn1cc(CN2CCC(C(=O)NCc3ccc(F)cc3)CC2)c2cc(Cl)ccc21	716
COC(=O)c1c(NC2CCCCC2)c2cccc(Cl)c2[nH]c1=O	876
Cn1nc(C2CCN(C(=O)c3ccc4ccccc4n3)CC2)c2c1CCOC2	669
CCOC(=O)Cc1c(C)nc2c(-c3ccccc3OC)c(C)nn2c1C	943
CCN(CC)CCNC(=O)C1CCCN(c2ncc(-c3cccc(F)c3)cn2)C1 (stereo not given)	688
N#Cc1ccc2c(c1)N(CCCN1CCC(O)CC1)c1ccccc1S2	743
Cc1ccc(S(=O)(=O)N2CCC3(CC2)NCCN=C3NCc2ccccc2)c(C)c1	739
O=C(CNC(=O)c1ccc(=O)[nH]c1)NCCOc1ccc(F)cc1	583
O=C(Cn1cc(S(=O)(=O)c2ccc(F)cc2)c2ccccc21)NC1CC1	748
